Value source: ChEMBL document CHEMBL3808274

targetOrTestSystem: Metabotropic glutamate receptor 4 (Homo sapiens)
Sequence (Q14833 whole entry): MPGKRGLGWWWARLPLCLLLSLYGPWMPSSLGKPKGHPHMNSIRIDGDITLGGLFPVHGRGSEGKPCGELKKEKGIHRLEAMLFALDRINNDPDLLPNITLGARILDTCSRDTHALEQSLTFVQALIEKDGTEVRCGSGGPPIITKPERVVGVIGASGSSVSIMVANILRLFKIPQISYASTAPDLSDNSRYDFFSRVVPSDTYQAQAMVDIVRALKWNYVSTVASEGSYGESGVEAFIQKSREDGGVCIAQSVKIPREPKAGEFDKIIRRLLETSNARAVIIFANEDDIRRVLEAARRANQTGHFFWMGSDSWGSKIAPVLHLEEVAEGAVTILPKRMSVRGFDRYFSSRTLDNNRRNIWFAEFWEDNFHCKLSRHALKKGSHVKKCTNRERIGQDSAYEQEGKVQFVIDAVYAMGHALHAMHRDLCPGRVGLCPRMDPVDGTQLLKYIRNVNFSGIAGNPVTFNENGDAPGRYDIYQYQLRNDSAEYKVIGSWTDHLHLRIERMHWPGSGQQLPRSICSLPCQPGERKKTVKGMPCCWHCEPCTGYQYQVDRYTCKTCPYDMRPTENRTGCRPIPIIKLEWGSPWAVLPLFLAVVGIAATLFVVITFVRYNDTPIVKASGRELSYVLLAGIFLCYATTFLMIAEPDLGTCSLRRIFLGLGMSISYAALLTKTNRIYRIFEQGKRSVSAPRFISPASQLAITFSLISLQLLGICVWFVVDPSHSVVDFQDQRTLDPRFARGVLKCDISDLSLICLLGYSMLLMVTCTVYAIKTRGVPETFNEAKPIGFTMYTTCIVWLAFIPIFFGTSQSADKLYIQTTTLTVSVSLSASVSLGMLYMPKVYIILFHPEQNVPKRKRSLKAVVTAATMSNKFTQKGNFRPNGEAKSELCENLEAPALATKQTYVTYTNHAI
testName: Positive allosteric modulation of human mGlu4 receptor assessed as increase in glutamate-induced calcium mobilization
Overview of reported pEC50 across a group of molecules:
# pEC50 is unitless: minus log10 of the molar concentration; print number only

// known answers, use as guide
Q: Answer with reported pEC50 of `CCc1nc(NC(=O)c2ccccn2)sc1S(=O)(=O)Cc1c(F)cccc1F`
A: 6.82

Q: Answer with reported pEC50 of `O=C(Nc1ccn(S(=O)(=O)Cc2cccc(F)c2)c1)c1ccccn1`
A: 6.24

Q: Answer with reported pEC50 of `Cc1cc(S(=O)(=O)n2ccc(NC(=O)c3ccccn3)c2)ccc1F`
A: 6.57

Q: Answer with reported pEC50 of `O=C(Nc1ccn(S(=O)(=O)Cc2ccc(C(F)(F)F)cc2)c1)c1ccccn1`
A: 6.73

Please find the next molecule below.
Q: Answer with reported pEC50 of `O=C(Nc1ncc(S(=O)(=O)Cc2ccccc2Cl)s1)c1ccccn1`
A: 6.72
